Sourced from patent US20230414780A1

target: T1, rhesus monkey TfR ectodomain fused to a mouse IgG1 Fc fragment (rhesus monkey, UniProt I0FKY7 89-760); assay: SPR, kinetic
T1 construct: extracellular domain; not shown: mouse IgG1 Fc fragment
Record true (1) whenever koff is at 0.02 s⁻¹ or higher; record false (0) when lower.

binder: VHH A (C5) (VHH, form with the C-terminal myc-His6 tag (x = 1), since the VHHs were detected with anti-6His or anti-cMyc; the same holds for m12 to m126) VHH: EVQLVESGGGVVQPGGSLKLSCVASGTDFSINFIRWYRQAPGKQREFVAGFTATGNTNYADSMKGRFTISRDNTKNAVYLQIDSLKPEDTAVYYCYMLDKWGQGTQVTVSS
class: false (0)
//
binder: H1 (VHH, also called phage-H1 (as tracer)) VHH: EVQLVESGGGLVQPGGSLRLSCAASGFASHLYAIGWFRQAPGKEREKVSCISSNDGSTYYADSVKGRFTISRDTVKDMVYLQMNSLKPEDTAVYYCATDLTVHCFMAEYDWWGQGTQVTVSS
class: false (0)
//
binder: B8^V38 (VHH) VHH: EVQLVESGGGVVQPGGSLRLSCAASGEIRSINFMRWYRQAPGKQREWVAGFTRTGSTNYPDSAKGRFTISRDNAKNTVYLQIDSLKPEDTAVYYCYMLDTWGQGTQVTVSS
class: true (1)
